Taken from patent US8637511B2.

- experimental.target: JAK3 (Homo sapiens, UniProt P52333)
- Sequence (P52333 whole entry, species assumed): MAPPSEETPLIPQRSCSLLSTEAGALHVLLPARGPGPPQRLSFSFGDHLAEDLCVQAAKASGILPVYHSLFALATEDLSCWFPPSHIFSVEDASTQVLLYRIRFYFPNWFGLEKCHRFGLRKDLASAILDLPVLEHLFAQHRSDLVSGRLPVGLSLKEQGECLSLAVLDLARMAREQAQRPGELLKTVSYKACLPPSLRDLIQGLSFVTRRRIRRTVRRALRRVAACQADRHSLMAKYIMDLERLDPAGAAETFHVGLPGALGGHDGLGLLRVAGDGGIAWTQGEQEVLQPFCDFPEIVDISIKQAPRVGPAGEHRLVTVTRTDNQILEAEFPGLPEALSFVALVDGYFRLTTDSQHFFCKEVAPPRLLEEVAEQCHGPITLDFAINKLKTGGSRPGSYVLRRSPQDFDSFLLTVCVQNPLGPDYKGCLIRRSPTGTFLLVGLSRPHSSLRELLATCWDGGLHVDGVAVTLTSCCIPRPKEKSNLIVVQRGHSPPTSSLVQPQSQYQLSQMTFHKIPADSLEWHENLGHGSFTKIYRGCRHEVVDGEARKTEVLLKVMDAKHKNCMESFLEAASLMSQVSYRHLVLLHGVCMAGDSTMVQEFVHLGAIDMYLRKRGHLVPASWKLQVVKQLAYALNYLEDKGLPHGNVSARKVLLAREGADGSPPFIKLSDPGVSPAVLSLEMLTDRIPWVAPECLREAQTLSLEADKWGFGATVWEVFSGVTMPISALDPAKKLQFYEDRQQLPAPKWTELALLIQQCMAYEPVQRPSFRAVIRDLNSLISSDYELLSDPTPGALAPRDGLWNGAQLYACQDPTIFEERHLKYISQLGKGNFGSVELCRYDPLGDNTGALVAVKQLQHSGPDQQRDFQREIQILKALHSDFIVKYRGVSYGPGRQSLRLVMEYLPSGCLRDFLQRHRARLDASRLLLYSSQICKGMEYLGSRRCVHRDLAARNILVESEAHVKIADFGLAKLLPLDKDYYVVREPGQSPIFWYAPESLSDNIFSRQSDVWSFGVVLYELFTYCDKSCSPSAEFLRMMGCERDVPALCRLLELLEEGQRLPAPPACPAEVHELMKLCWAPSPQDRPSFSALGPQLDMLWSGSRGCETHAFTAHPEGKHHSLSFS
- method.notes: biochemical
- protocol.conditions: read-out: JAK3 Ki value
reported.property: Ki

INSERT INTO measurements (compound, reported_property, assay_result) VALUES
  ('CCC(=O)Nc1ccc(Sc2nc(Nc3cc(C)n[nH]3)cc(N3CC(O)(C(F)(F)F)C3)n2)cc1', 'Ki', '10 to 500 nM'),
  ('CCC(=O)Nc1ccc(Sc2nc(Nc3cc(C)n[nH]3)cc(N3CC(O)(C(C)(C)C)C3)n2)cc1', 'Ki', '≤ 10 nM'),
  ('Cc1cc(Nc2cc(N3CC(F)(C4CC4)C3)nc(Sc3ccc4c(c3)CN(CC(F)(F)F)C4=O)n2)[nH]n1', 'Ki', '10 to 500 nM'),
  ('CC(=O)Nc1cccc(Sc2nc(Nc3cc(C)n[nH]3)cc(N3CC(F)(C4CC4)C3)n2)c1', 'Ki', '10 to 500 nM'),
  ('Cc1cc(Nc2cc(N3CC(N4CCOCC4)C3)nc(Sc3ccc(NC(=O)C4(C(F)(F)F)CC4)cc3)n2)[nH]n1', 'Ki', '10 to 500 nM'),
  ('Cc1cc(Nc2cc(N3CCC3)nc(Sc3ccc(N)cc3)n2)[nH]n1', 'Ki', '≤ 10 nM'),
  ('Cc1cnc(Nc2cc(N3CC(F)(C4CC4)C3)nc(Oc3ccc(NC(=O)CC(F)(F)F)cc3)n2)s1', 'Ki', '≤ 10 nM'),
  ('CC(C)(C)c1cc(Nc2cc(N3CCC3)nc(Sc3ccc(NC(=O)c4ccccc4Cl)cc3)n2)n[nH]1', 'Ki', '500 to 2000 nM'),
  ('Cc1cc(Nc2cc(N3CC(O)(C4CC4)C3)nc(Sc3ccc4nc(C(F)(F)F)ccc4c3)n2)[nH]n1', 'Ki', '10 to 500 nM'),
  ('Cc1cc(Nc2cc(N3CCC3)nc(Sc3ccc(NC(=O)c4ccc(CN(C)C)cc4)cc3)n2)[nH]n1', 'Ki', '500 to 2000 nM'),
  ('CC1=NN=C(Nc2cc(N3CCC3)nc(Sc3ccc(NC(=O)c4cccc(Cl)c4F)cc3)n2)C1', 'Ki', '10 to 500 nM'),
  ('CCC(=O)Nc1ccc(Sc2nc(Nc3cc(C)n[nH]3)cc(N3CC(OC(C)(C)C)C3)n2)cc1', 'Ki', '10 to 500 nM'),
  ('Cc1ccc2cc(Sc3nc(Nc4cc(C)[nH]n4)cc(N4CC(C5CCC(F)C5)C4)n3)ccc2n1 (stereo not shown)', 'Ki', '10 to 500 nM'),
  ('Cc1cc(Nc2cc(N3CC(C)(C#N)C3)nc(Sc3ccc(NC(=O)CC(F)(F)F)cc3)n2)[nH]n1', 'Ki', '10 to 500 nM'),
  ('CCC(=O)Nc1ccc(Sc2nc(Nc3cc(C4CC4)n[nH]3)cc(N3CC(N4CCOCC4)C3)n2)cc1', 'Ki', '≤ 10 nM'),
  ('O=C(Nc1ccc(Sc2nc(Nc3cc(C4CC4)[nH]n3)cc(N3CCC3)n2)cc1)c1ccccc1Cl', 'Ki', '≤ 10 nM');

* * *

Entries and their Ki values follow.
- experimental.target: Aurora-2 (Aurora A) (Homo sapiens, UniProt O14965)
- method.notes: Aurora-2 (Aurora A) inhibition assay, coupled enzyme
- Assay type: biochemical
- protocol.conditions: read-out: Aurora A kinase Ki value
reported.property: Ki

INSERT INTO assay_data (compound, assay_result) VALUES
  ('Cc1cc(Nc2cc(N3CC(F)(C4CC4)C3)nc(Sc3ccc(NC(=O)C4(C)CC4)cc3)n2)[nH]n1', '≤ 1 nM'),
  ('Cc1cc(Nc2cc(N3CCC3)nc(Sc3ccc(NC(=O)C4CC4)cc3)n2)n[nH]1', '1 to 5 nM'),
  ('CCCCOC1(C2CC2)CN(c2cc(Nc3cc(C)n[nH]3)nc(Sc3ccc(NC(=O)C4CC4)cc3)n2)C1', '≤ 1 nM'),
  ('Cc1cc(Nc2cc(N3CCC3)nc(Sc3ccc(NC(=O)C(C)CC(F)(F)F)cc3)n2)[nH]n1 (stereo not shown)', '1 to 5 nM'),
  ('Cc1cc(Nc2cc(N3CC(N4CCCC4)C3)nc(Sc3ccc(NC(=O)CC(F)(F)F)cc3)n2)[nH]n1', '≤ 1 nM'),
  ('CCC(=O)Nc1ccc(Sc2nc(Nc3cc(C)n[nH]3)cc(N3CC(N4CCC4)C3)n2)cc1', '1 to 5 nM'),
  ('Cc1cc(Nc2cc(N3CCC3)nc(Sc3ccc(NC(=O)CC(F)(F)F)cc3)n2)n[nH]1', '≤ 1 nM');

* * *

- experimental.target: Aurora-2 (Aurora A) (Homo sapiens)
- method.notes: Aurora-2 (Aurora A) inhibition assay, coupled enzyme
- Type: biochemical
pKi: −log10 of the molar value.
Entries and their pKi values follow.
reported.property: pKi

INSERT INTO results (compound, assay_result) VALUES
  ('Cc1cc(Nc2cc(N3CCC3)nc(Sc3ccc(C(=O)Nc4ccc(Cl)cc4)cc3)n2)n[nH]1 [Compound 21]', '6.70 to 8.30'),
  ('Cc1cc(Nc2cc(N3CCC3)nc(Sc3ccc(C(=O)N4CCCC4)cc3)n2)n[nH]1 [Compound 22]', '6.70 to 8.30'),
  ('CC1=NN=C(Nc2cc(N3CCC3)nc(Sc3ccc(NC(=O)c4cccc(C(F)(F)F)c4F)cc3)n2)C1 [Compound 55]', '≥ 9.00'),
  ('Cc1cc(Nc2cc(N3CC(N4CC[C@H](F)C4)C3)nc(Sc3ccc4ncccc4c3)n2)n[nH]1 [Compound 160]', '≥ 9.00'),
  ('Cc1cc(Nc2cc(N3CCC3)nc(Sc3ccc(NC(=O)c4ccc(Cl)cc4)cc3)n2)n[nH]1 [Compound 54]', '8.30 to 9.00'),
  ('COC1CN(c2cc(Nc3cc(C)[nH]n3)nc(Sc3ccc(NC(=O)c4ccccc4Cl)cc3)n2)C1 [Compound 12]', '≥ 9.00'),
  ('Cc1cc(Nc2cc(N3CC(OC(C)(C)C)C3)nc(Sc3ccc(NC(=O)c4ccccc4Cl)cc3)n2)[nH]n1 [Compound 66]', '≥ 9.00'),
  ('Cc1cc(Nc2cc(N3CCC3)nc(Sc3ccc(NC(=O)c4ccc(Cl)cc4Cl)cc3)n2)n[nH]1 [Compound 162]', '≥ 9.00'),
  ('CCC(=O)Nc1ccc(Sc2nc(Nc3cc(C)[nH]n3)cc(N3CC(O)C3)n2)cc1 [Compound 15]', '8.30 to 9.00'),
  ('CCNC(=O)c1ccc(Sc2nc(Nc3cc(C)[nH]n3)cc(N3CCC3)n2)cc1 [Compound 20]', '6.70 to 8.30'),
  ('Cc1ccc(C(=O)Nc2ccc(Sc3nc(Nc4cc(C)[nH]n4)cc(N4CCC4)n3)cc2)cc1 [Compound 28]', '8.30 to 9.00'),
  ('Cc1cc(Nc2cc(N3CCC3)nc(Sc3ccc(C(=O)NC4CC4)cc3)n2)n[nH]1 [Compound 18]', '6.70 to 8.30'),
  ('Cc1cc(Nc2cc(N3CC(C)(O)C3)nc(Sc3ccc(NC(=O)c4ccccc4C(F)(F)F)cc3)n2)[nH]n1 [Compound 115]', '≥ 9.00'),
  ('Cc1cc(Nc2cc(N3CCC3)nc(Sc3ccc(C(=O)NCc4ccccc4Cl)cc3)n2)n[nH]1 [Compound 24]', '6.70 to 8.30'),
  ('Cc1cc(Nc2cc(N3CCC3)nc(Sc3ccc(C(=O)NCc4ccccc4)cc3)n2)n[nH]1 [Compound 19]', '6.70 to 8.30'),
  ('Cc1ccc(S(=O)(=O)Nc2ccc(Sc3nc(Nc4cc(C)[nH]n4)cc(N4CCC4)n3)cc2)cc1 [Compound 27]', '8.30 to 9.00');

* * *

Entries and their Ki values follow.
- experimental.target: Aurora-2 (Aurora A) (Homo sapiens)
- Sequence (O14965 1-403): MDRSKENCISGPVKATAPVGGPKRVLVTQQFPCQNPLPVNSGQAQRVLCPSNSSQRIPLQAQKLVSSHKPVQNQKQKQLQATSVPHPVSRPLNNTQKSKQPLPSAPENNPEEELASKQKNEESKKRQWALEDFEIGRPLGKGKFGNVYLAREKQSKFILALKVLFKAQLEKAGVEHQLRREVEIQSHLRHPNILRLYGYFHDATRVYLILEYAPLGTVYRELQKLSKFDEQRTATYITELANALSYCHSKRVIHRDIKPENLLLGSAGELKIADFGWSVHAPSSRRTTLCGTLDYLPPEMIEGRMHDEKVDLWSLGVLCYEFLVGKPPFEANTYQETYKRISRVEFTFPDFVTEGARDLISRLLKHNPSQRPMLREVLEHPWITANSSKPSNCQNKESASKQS
- method.notes: Aurora-2 (Aurora A) inhibition assay, coupled enzyme
- Type: biochemical
- protocol.conditions: read-out: Aurora A kinase Ki value
reported.property: Ki

INSERT INTO results (compound, reported_property, assay_result) VALUES
  ('Cc1cc(Nc2cc(N3CCC3)nc(Sc3cccc(NC(=O)c4ccccc4Cl)c3)n2)[nH]n1 [Compound 49]', 'Ki', '5 to 200 nM'),
  ('Cc1cc(Nc2cc(N3CCC3)nc(Sc3ccc(NC(=O)c4cc(C)nc(Cl)c4)cc3)n2)[nH]n1 [Compound 149]', 'Ki', '1 to 5 nM'),
  ('CCC(=O)Nc1ccc(Sc2nc(Nc3cc(C)n[nH]3)cc(N3CC(O)(c4ccccc4C)C3)n2)cc1 [Compound 93]', 'Ki', '≤ 1 nM'),
  ('Cc1cc(Nc2cc(N3CC(C#N)C3)nc(Sc3ccc(NC(=O)c4ccccc4Cl)cc3)n2)n[nH]1 [Compound 16]', 'Ki', '≤ 1 nM'),
  ('Cc1cc(Nc2cc(N3CC(C)C3)nc(Sc3ccc(NC(=O)c4ccccc4Cl)cc3)n2)n[nH]1 [Compound 39]', 'Ki', '1 to 5 nM'),
  ('Cc1cc(Nc2cc(N3CC(N4CCOCC4)C3)nc(Sc3ccc4c(c3)CN(CC(F)(F)F)C4=O)n2)[nH]n1 [Compound 173]', 'Ki', '≤ 1 nM'),
  ('Cc1cnc(Nc2cc(N3CC(N(C)C)C3)nc(Sc3ccc(NC(=O)C4CC4)cc3)n2)s1 [Compound 1]', 'Ki', '5 to 200 nM'),
  ('Cc1cc(Nc2cc(N3CCC3)nc(Sc3ccc(NC(=O)Cc4cccc(Cl)c4)cc3)n2)[nH]n1 [Compound 58]', 'Ki', '1 to 5 nM'),
  ('Cc1cc(Nc2cc(N3CC(C)(C#N)C3)nc(Sc3ccc(NC(=O)c4ccccc4C(F)(F)F)cc3)n2)[nH]n1 [Compound 122]', 'Ki', '≤ 1 nM'),
  ('Cc1cc(Nc2cc(N3CC(O)(C4CC4)C3)nc(Sc3ccc4nc(C(F)(F)F)ccc4c3)n2)[nH]n1 [Compound 186]', 'Ki', '≤ 1 nM'),
  ('Cc1ccc(C(=O)Nc2ccc(Sc3nc(Nc4cc(C)n[nH]4)cc(N4CCC4)n3)cc2)cn1 [Compound 145]', 'Ki', '5 to 200 nM'),
  ('Cc1cc(Nc2cc(N3CC(F)(C4CC4)C3)nc(Oc3ccc(NC(=O)CC(F)(F)F)cc3)n2)[nH]n1 [Compound 144]', 'Ki', '≤ 1 nM'),
  ('CCC(=O)Nc1ccc(Sc2nc(Nc3cc(C)n[nH]3)cc(N3CC(C)(OC(C)(C)C)C3)n2)cc1 [Compound 96]', 'Ki', '1 to 5 nM'),
  ('CC(=O)OC1(C2CC2)CN(c2cc(Nc3cc(C)n[nH]3)nc(Sc3ccc(NC(=O)C4CC4)cc3)n2)C1 [Compound 107]', 'Ki', '≤ 1 nM'),
  ('COC1(C)CN(c2cc(Nc3cc(C)n[nH]3)nc(Sc3ccc(NC(=O)c4ccccc4Cl)cc3)n2)C1 [Compound 51]', 'Ki', '≤ 1 nM');
